All values here come from patent US20220289830A1.

# target-system: native PcrV on live Pseudomonas aeruginosa (strains O6-57/66, O11-PA103, O1-52/66, O16-177/81) (Pseudomonas aeruginosa)
# measurement-description: cell-based or functional assay

binder	RBC lysis IC50, strain O16-177/81 [mg/L]
8C1 (antibody, V domains shown, also called optimized anti-PcrV mAb clone 8C1) VH: EVQLLESGGGLVQPGGSLRLSCTASGFTFSDNHMSWVRQAPGKGLDWVSGISESGGSTNYADSVKGRFSTSRDNSKSTLYLDMNSLRAEDTAIYYCAKGRFSTNSAHFFRAVYGMDVWGQGTAVTVSS VL: DIQLTQSPSSLSASVGDRVTITCRASQGISSYLAWYQQKPGKAPKLLIYAASTLQSGVPSRFSGSGSGTDFTLTISSLQPEDFATYYCQQLSSYPLTFGGGTKVEIK	0.252
7C1 (antibody, V domains shown, also called optimized anti-PcrV mAb clone 7C1) VH: EVQLLESGGGLVQPGGSLRLSCTASGFTFSDNHMSWVRQAPGKGLDWVSGISESGGSTNYADSVKGRFSTSRDNSKSTLYLDMNSLRAEDTAIYYCAKGRFSTSSSHFYRAVYGMDVWGQGTAVTVSS VL: DIQLTQSPSSLSASVGDRVTITCRASQGISSYLAWYQQKPGKAPKLLIYAASTLQSGVPSRFSGSGSGTDFTLTISSLQPEDFATYYCQQLSSYPLSFGGGTKVEIK	0.141
13-42 mAb (antibody, V domains shown) VH: EVQLLESGGGLVQPGGSLRLSCTASGFTFSDYPMSWVRQAPGKGLDWVSGISESGGSTNDADSVKGRFSTSRDNSKSTLYLDMNSLRAEDTAIYYCAKGRFCTNSSCFFRAVYGMDVWGQGTAVTVSS VL: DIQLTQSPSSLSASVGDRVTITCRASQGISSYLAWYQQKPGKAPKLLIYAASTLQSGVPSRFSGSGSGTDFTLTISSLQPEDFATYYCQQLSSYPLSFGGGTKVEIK	0.464
7B1 (antibody, V domains shown, also called 7B1-IgG1; 7B1 mAb) VH: EVQLLESGGGLVQPGGSLRLSCTASGFTFSDNYMSWVRQAPGKGLDWVSVISESGGSTNYADSVKGRFSTSRDNSKSTLYLDMNSLRAEDTAIYYCAKGRFSTLSSHFFRAVYGMDVWGQGTAVTVSS VL: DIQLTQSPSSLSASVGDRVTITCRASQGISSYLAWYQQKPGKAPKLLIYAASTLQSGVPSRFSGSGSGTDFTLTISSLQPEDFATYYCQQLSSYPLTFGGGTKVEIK	0.197
